Where these numbers come from: paper PMC5540273

system: p38-alpha; construct: gene MAPK14; conditions: concentration: 1 μM, replicates: in singlicate; n = 1;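 note: KINOMEscan kinase panel screen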
measurement.name: %Inh (%)
Give just the numeric value; % need not be written.

// lookup %Inh | system=p38-alpha | key= Nc1nc(-c2ccc3c(N)n[nH]c3c2)cc(N2CCCCC2)n1 0

What measured %Inh is associated with Fc1ccc(Nc2nccc(-c3c(-c4ccc(Cl)cc4)nn4ncccc34)n2)cc1F on p38-alpha? 26

Record Clc1cc(Nc2ncnc3cc[nH]c23)ccc1OCc1ccccn1 : what is its %Inh with p38-alpha? 18

Hi! What's the reported %Inh for CC(C)(C)OC(=O)NC1CCCN(c2cc(-c3ccc4c(N)n[nH]c4c3)nc(N)n2)C1 (stereo not drawn) on p38-alpha? 0

Field: %Inh (p38-alpha). Entry: FC(F)(F)c1cc(Nc2nccc(-c3c(-c4ccc(Cl)cc4)nn4ncccc34)n2)ccc1Cl 43

Hi! What's the reported %Inh for CNc1nccc(-c2c(-c3ccc(F)cc3)ncn2C2CCN(C)CC2)n1 on p38-alpha? 98.6

Find %Inh (p38-alpha) for the entry NC(=O)c1sc(-n2cnc3ccccc32)cc1OCc1ccccc1F 93.4

Record Cn1ccc2ncnc(Oc3ccc(NC(=O)Nc4cccnc4)c(Cl)c3)c21 : what is its %Inh with p38-alpha? 14

Recall the recorded %Inh for O=C(NCCCN1CCCC1=O)c1cnc(NCc2cc(Cl)ccc2Cl)nc1NC1CCNCC1 with p38-alpha and state it. 0

Entry FC(F)(F)c1ccc(-c2nn3ncccc3c2-c2ccnc(Nc3cccc(C(F)(F)F)c3)n2)cc1 , system p38-alpha: what %Inh was measured? 0

Notebook: pull reported %Inh for p38-alpha, entry C[C@H]1CC[C@@H](C(=O)Nc2ccccc2)CN1c1cc(-c2ccc3c(N)n[nH]c3c2)nc(N)n1 0

I'm curious: which %Inh was measured for COC(=O)c1cccc(NC(=O)NCCNc2ccnc(Nc3ccc(F)cc3)n2)c1 tested on p38-alpha? 3

Observed %Inh on p38-alpha for Fc1cccc(COc2ccc(Nc3ncnc4nn5ccccc5c34)cc2Cl)c1 , please. 11

For p38-alpha, provide %Inh of COc1ccc(Nc2nccc(N3CCC(NC(=O)Nc4ccc5c(c4)OCO5)C3)n2)cc1 (stereo not drawn) please. 12

Hi! What's the reported %Inh for Cc1ccc(NC(=O)c2cccc(C#N)c2)cc1-c1ccc(C(=O)Nc2ccncc2)cc1 on p38-alpha? 47

Entry Clc1ccc(-c2cc(-c3c[nH]nc3-c3ccccn3)ccn2)cc1 , system p38-alpha: what %Inh was measured? 45

Give p38-alpha %Inh for CCC(CC)(CC)n1cnc2c(N)ncnc21 3

Provide the documented %Inh with p38-alpha as the system for Cn1cc(-c2ccc3c(c2)CCN3C(=O)Cc2cccc(C(F)(F)F)c2)c2c(N)ncnc21 0
